# System: SR
# Procedure Text: NCI tumour cell line growth inhibition, 48 h
The source made the active and inactive calls. Cut-off read from the data, not from the text of the source: active = GI50 up to about 1.1 µM and inactive = higher.
Outcomes: class 1 for active, class 0 for inactive

molecule="CCOC(=O)CCC(NC(=O)Cc1ccc(Nc2nc3ccccc3nc2-c2cccs2)cc1)C(=O)OCC (centres undefined)" category="class 0"
molecule=O=C(CCc1ccccc1)NS(=O)(=O)c1ccccc1 category="class 0"
molecule="COc1nc(NC2OC(COC(C)=O)C(OC(C)=O)C(OC(C)=O)C2OC(C)=O)c(/N=C/C=N/c2c(NC3OC(COC(C)=O)C(OC(C)=O)C(OC(C)=O)C3OC(C)=O)nc(OC)n(C)c2=O)c(=O)n1C (centres undefined)" category="class 0"
molecule=Cc1cc(N(CCC#N)S(=O)(=O)c2ccccc2)ccc1C=O category="class 0"
molecule=O=C(/C=C/c1ccc(Cl)c(Cl)c1)Oc1ccc(/C=C2\CCCCC2=O)cc1 category="class 0"
molecule="O=[N+]([O-])c1ccc(C2N3CCCCC3[C@@H]3c4[nH]c5ccccc5c4CCN23)cc1 (some centres undefined)" category="class 0"
molecule=CCN(CC)/C(SCc1ccccc1)=C(\C(Cl)=C(Cl)Cl)[N+](=O)[O-] category="class 0"
molecule="COC(=O)CCC(=O)c1ccc2c(c1)CC1(C2)Cc2ccc3c(c2C1)CCCC3=O (centres undefined)" category="class 1"
molecule="CCOc1ccc(C(C)c2cc3c(cc2OC)OCO3)cc1 (centres undefined)" category="class 1"
molecule="C/C=C/C=C/C1=NN(c2cccc(S(=O)(=O)O)c2)C2(C1)C(Cl)C(=O)N2c1nc2ccccc2s1 (centres undefined)" category="class 0"
molecule=NC(=O)c1ccc(NCC2=CC(=O)C=CC2=O)cc1 category="class 0"
molecule=O=C(NC1CCCCC1)c1cc2ccccc2cc1O category="class 0"
molecule=Nc1ncnc2c1ncn2Cc1cccc(CCl)c1 category="class 0"
molecule=COC(c1ccc(C(C)(C)C)cc1)(c1ccc(C(C)(C)C)cc1)c1cc(C(O)(c2cc(C(OC)(c3ccc(C(C)(C)C)cc3)c3ccc(C(C)(C)C)cc3)c(C)cc2C)c2cc(C(OC)(c3ccc(C(C)(C)C)cc3)c3ccc(C(C)(C)C)cc3)c(C)cc2C)c(C)cc1C category="class 0"
molecule=CCN(CC)/C(Cl)=C(Cl)\C(=C1\Nc2ccc(OC)cc21)[N+](=O)[O-] category="class 0"
molecule=CCOC(=O)c1c(O)cc(=O)[nH]c1N1CCOCC1 category="class 0"
molecule=Cc1cc(O)cc2c1c(=O)c1ccccc1n2C category="class 0"
molecule=CN(C)c1ccc(/C(F)=C(F)/C(F)=C(F)/C(F)=C(\F)c2ccc(Br)cc2)cc1 category="class 0"
molecule="COc1ccc(N2C(=O)C3c4[nH]c5cc(Cl)ccc5c4C4CCC(C(C)(C)C)CC4C3C2=O)cc1 (centres undefined)" category="class 0"
molecule="COc1cc(C(C)c2cc3c(cc2OCCNC(=O)COc2cc4c(cc2C(C)c2cc(OC)c(OC)c(OC)c2)OCO4)OCO3)cc(OC)c1OC (centres undefined)" category="class 0"
molecule="CCCCCCCCCCCCCCCCCCN(C)CC(COC)OP(=O)([O-])OCC[N+](C)(C)C (centres undefined)" category="class 1"
molecule=c1ccc2c(NCCCCCCNc3c4ccccc4nc4ccccc34)c3ccccc3nc2c1 category="class 1"
molecule=CCOC(=O)c1csc(NC(=O)CN(C)C)n1 category="class 0"
molecule="NC1CCC2(O)c3ccccc3C2C1 (centres undefined)" category="class 0"
molecule=CCOC(=O)Cc1c(C(=O)OCC)[n+]([O-])c2cc(Cl)c(Cl)cc2[n+]1[O-] category="class 1"
molecule=CC(=O)Nc1ccc2nc(N)n[n+]([O-])c2c1 category="class 0"
molecule=O=C(O)c1nc2ccccc2nc1Nc1ccc(Cl)c(Cl)c1 category="class 0"
molecule=C=CC(C)(C)n1cc(C2=C(O)C(=O)C(c3c(CC=C(C)C)[nH]c4ccccc34)=C(O)C2=O)c2ccccc21 category="class 1"
molecule=COc1c2ccccc2c(OC)c2nc(C)ccc12 category="class 0"
molecule="CCCC(O)[C@@H](O)c1ccc2c(c1O)C(=O)c1c(OC)cccc1C2=O (some centres undefined)" category="class 0"
molecule="C[N+](C)(C)CC1CCC(C[N+](C)(C)C)C1=O (centres undefined)" category="class 1"
molecule="CC(=O)N1N=C(c2ccccc2Nc2ccccc2C2=NN(C(C)=O)C(c3ccccc3)O2)OC1c1ccccc1 (centres undefined)" category="class 0"
molecule=CC(C)(C)C(=O)C(N)C(=O)C(C)(C)C category="class 0"
molecule="COC(=O)C1C2OC(C)(C)OC2CN1S(=O)(=O)c1ccc(C)cc1 (centres undefined)" category="class 0"
molecule="C#CCN(Cc1ccc2[nH]c(N)nc(=O)c2c1)c1ccc(C(=O)NC(CCC(=O)O)C(=O)O)cc1 (centres undefined)" category="class 0"
molecule="CN1NC(c2ccccc2)=C(C#N)C(=O)CC1c1ccc(F)cc1 (centres undefined)" category="class 0"
molecule="CCCCCCCCCCCCCCCCCCNc1ccn(C2OC(CO)C(O)C2O)c(=O)n1 (centres undefined)" category="class 0"
molecule=CCOC(=O)c1c(C)n(Cc2ccccc2)c(=O)c2ccccc2c(=O)c2c(=O)ccc(=O)c1=2 category="class 0"
molecule=C#CCOC(=O)c1ccc(OC(C)=O)cc1 category="class 0"
